Below is a list of entries, each paired with its recorded clearance value.
Experiment: PK protocol (intravenous and oral administration)
Assay type: in vivo, male Sprague Dawley rats
Conditions: male, Sprague Dawley, plasma; rat, intravenous, dose 1 mg/kg
Method: Pharmacokinetic parameters were determined in male Sprague Dawley rats (Charles River, UK, 250-350 g; or Vital River Laboratory Animal Technology Co Ltd, Beijing, China, 7-9 weeks old). Animals were individually housed during the study and maintained under a 12 h light/dark cycle. Animals had free access to food and water except that some orally dosed animals were food deprived overnight prior to the study. […]
Give just the numeric value; mL/min/kg need not be written.

Look over these answered cases.
- COC1(c2cc(S(=O)(=O)NC(=O)Nc3c4c(cc5c3CCC5)CCC4)nn2C(C)C)COC1: 5.6
- CN(CCO)Cc1cc(S(=O)(=O)NC(=O)Nc2c3c(cc4c2CCC4)CCC3)nn1C: 8.1
- C[C@H](O)Cn1ccc(S(=O)(=O)NC(=O)Nc2c3c(cc4c2CCC4)CCC3)n1: 2.3
- O=C(Nc1c2c(cc3c1CCC3)CCC2)NS(=O)(=O)c1ccn(CC2CCCO2)n1 (stereo not drawn): 4.5
- C[C@@H](O)Cn1ccc(S(=O)(=O)NC(=O)Nc2c3c(cc4c2CCC4)CCC3)n1: 1.8

QUERY: What clearance value was documented for this compound, O=C(Nc1c2c(cc3c1CCC3)CCC2)NS(=O)(=O)c1ccn(C2(CO)CCC2)n1 ?
RESULT: 2.4

QUERY: Follow-up entry: COCCN(C)C(=O)c1cc(S(=O)(=O)NC(=O)Nc2c3c(cc4c2CCC4)CCC3)nn1C
RESULT: 14.4

QUERY: Follow-up entry: COC1(c2cc(S(=O)(=O)NC(=O)Nc3c4c(cc5c3CCC5)CCC4)nn2C)CCOC1 (stereo not drawn)
RESULT: 17.6

QUERY: Follow-up entry: Cn1nc(S(=O)(=O)NC(=O)Nc2c3c(cc4c2CCC4)CCC3)cc1C1(O)COC1
RESULT: 9
